# credit: patent US12514858B2

# SYSTEM: UniProt P28907
# Sequence (P28907 whole entry): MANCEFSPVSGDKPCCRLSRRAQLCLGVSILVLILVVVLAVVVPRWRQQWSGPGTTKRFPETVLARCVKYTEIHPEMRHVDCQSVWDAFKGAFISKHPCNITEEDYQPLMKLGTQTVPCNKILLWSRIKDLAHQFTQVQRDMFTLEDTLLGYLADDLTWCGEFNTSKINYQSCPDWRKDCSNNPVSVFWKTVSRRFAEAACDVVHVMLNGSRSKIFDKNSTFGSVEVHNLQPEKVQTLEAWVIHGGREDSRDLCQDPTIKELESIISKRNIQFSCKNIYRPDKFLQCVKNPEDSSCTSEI
READOUT NAME: IC50 (nM)
One number for each entry, in nM.

Known results for compounds:
# COMPOUND, READOUT UNITS, IC50
records = [
    ("COCCO[C@H]1CC[C@H](NC(=O)c2cc(SC)cc(-n3ccnc3)n2)CC1 [Ex. 37]", "nM", 42),
    ("COCCO[C@H]1CC[C@H](NC(=O)c2cc(C(C)(C)O)cc(-n3ccnc3)n2)CC1 [Ex. 40]", "nM", 1900),
    ("COCCO[C@H]1CC[C@H](NC(=O)c2cc(-c3c(C)nn(C)c3C)cc(-n3ccnc3)n2)CC1 [Ex. 14]", "nM", 24),
    ("COCCO[C@H]1CC[C@H](NC(=O)c2cc(CF)nc(-n3ccnc3)n2)CC1 [Ex. 51]", "nM", 17),
]

Kindly review the next compound as well.
Record Cc1cc(C(=O)N[C@H]2CC[C@H](OC(F)F)CC2)nc(-n2ccnc2)n1 [Ex. 42] / UniProt P28907, IC50 recorded as 4.8
